Give Activity for every item shown.
Biological target: 5-hydroxytryptamine receptor 1A (Homo sapiens)
Sequence (whole entry): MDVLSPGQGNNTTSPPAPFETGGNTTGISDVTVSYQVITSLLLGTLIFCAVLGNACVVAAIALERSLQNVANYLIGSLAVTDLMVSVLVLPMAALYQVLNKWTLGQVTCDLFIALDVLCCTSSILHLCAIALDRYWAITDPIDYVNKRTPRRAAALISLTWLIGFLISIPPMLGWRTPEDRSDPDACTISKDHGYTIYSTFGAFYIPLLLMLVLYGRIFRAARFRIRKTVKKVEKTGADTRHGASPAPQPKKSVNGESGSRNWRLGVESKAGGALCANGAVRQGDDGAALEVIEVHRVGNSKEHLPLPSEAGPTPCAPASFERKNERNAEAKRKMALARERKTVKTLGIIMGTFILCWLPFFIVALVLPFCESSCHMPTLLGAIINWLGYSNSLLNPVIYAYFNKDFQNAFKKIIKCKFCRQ
Experiment: Displacement of [3H]8-OH-DPAT from 5HT1A receptor at 10 uM
Give bare numbers, in %.

molecule	reported-metric	result-value
CC(CO)NCCCN1c2ccccc2Sc2ccc(C(F)(F)F)cc21 (stereo unspecified)	Activity	58

Batch: Activity for all items listed.
1. FC(F)(F)c1ccc2c(c1)N(CCCN1CCN(c3ncccn3)CC1)c1ccccc1S2
2. FC(F)(F)c1ccc2c(c1)N(Cc1ccc(CNCc3ccccc3)cc1)c1ccccc1S2
3. CN1CCCC(CN2c3ccccc3Sc3cccnc32)C1 (stereo unspecified)
4. CN1CCCC(CN2c3ccccc3Sc3cc(N4CCOCC4)ccc32)C1 (stereo unspecified)
5. CN(CCCN1c2ccccc2Sc2ccc(C(F)(F)F)cc21)Cc1ccccc1
6. CN1CCCC(CN2c3ccccc3Sc3ccc(C(F)(F)F)cc32)C1 (stereo unspecified)

**Result**
[94, 0, 19, 0, 31, 5]

Please give Activity for each item listed below.
1. CN1CCCC(CN2c3ccccc3Sc3cc(Cl)ccc32)C1 (stereo unspecified)
2. Cc1ccc2c(c1)Sc1ccccc1N2CC1CCCN(C)C1 (stereo unspecified)
3. FC(F)(F)c1ccc2c(c1)N(Cc1ccc(CNc3nccs3)cc1)c1ccccc1S2
4. CN1CCCC(CN2c3ccccc3Sc3ccc(-c4ccccc4)cc32)C1 (stereo unspecified)
5. CN(Cc1ccccc1)Cc1ccc(CN2c3ccccc3Sc3ccc(C(F)(F)F)cc32)cc1
6. FC(F)(F)c1ccc2c(c1)N(CCCNc1ccccn1)c1ccccc1S2
7. CCN(CC)Cc1ccc(CN2c3ccccc3Sc3ccc(C(F)(F)F)cc32)cc1

**Result**
0
0
0
1
4
45
23

List reported Activity for each of these molecules:
1. FC(F)(F)c1ccc2c(c1)N(Cc1ccc(CN3CCN(c4ncccn4)CC3)cc1)c1ccccc1S2
2. FC(F)(F)c1ccc2c(c1)N(Cc1ccc(CNc3ccccn3)cc1)c1ccccc1S2
3. FC(F)(F)c1ccc2c(c1)N(CCCN1c3ccccc3Sc3ccc(C(F)(F)F)cc31)c1ccccc1S2
4. CN1CCCC(CN2c3ccccc3Sc3cc(F)ccc32)C1 (stereo unspecified)
5. FC(F)(F)c1ccc2c(c1)N(CCCNc1cccc(Oc3ccccc3)c1)c1ccccc1S2
6. FC(F)(F)c1ccc2c(c1)N(CCCNc1nccs1)c1ccccc1S2

**Result**
1: 10; 2: 0; 3: 67; 4: 7; 5: 0; 6: 54

**Query** # lookup: Activity of OC1CCN(Cc2ccc(CN3c4ccccc4Sc4ccc(C(F)(F)F)cc43)cc2)C1 (stereo unspecified)
**Result** 0

// provenance: ChEMBL document CHEMBL1147957
